| compound | melting point |
| --- | --- |
| CC(=O)OC(C(=O)O)c1c(C(C)C)cc(C(C)C)cc1C(C)C (centres undefined) | 166 to 169 °C |
| Cc1ccc(N)c(C)c1C1OCCO1 | 100 to 103 °C |
| Cc1c(-c2ccc(O)cc2O)c(=O)oc2cc(F)ccc12 | 266 to 268 °C |
| O=C(NNC(=O)c1ccc(Oc2ccccc2)cc1)c1ccc(O)cc1 | 203 to 205 °C |
| Nc1cc(-n2cc(C(=O)O)c(=O)c3cc([N+](=O)[O-])c(F)c(F)c32)c(F)cc1F | 142 to 143 °C |
| COc1cc(C(=O)N2CCC(CCN3CCC(C(=O)c4nc5ccccc5n4Cc4ccc(F)cc4)CC3)(c3ccc4c(c3)OCO4)C2)cc(OC)c1OC (centres undefined) | 112 to 114 °C |
| FC(F)(F)c1cc(Cl)c2nc(N3CCN(c4ncccc4C(F)(F)F)CC3)[nH]c2c1 | 204 °C |
| CN1C(=O)C(C(=O)Nc2ccc(Oc3nc(C(F)(F)F)nn3C)cc2)C(=O)N(C)C1=O | 202 to 204 °C |
| CC1CC=NN1C(=O)c1cccnc1 (single isomer, unassigned; (-)) | 67 to 69 °C |
